system: Staphylococcus aureus; conditions: Staphylococcus aureus infection in mice; two doses, administered subcutaneously
Recorded Metric: log10 ED50 (log10 of the value in mg/kg/2)
Answers are given as log10 of ED50 in mg/kg/2.

Query string: I would be grateful if you could share the reported log10 ED50 for CCCCCCCCCNC1(C)CC(OC2C(Oc3c4cc5cc3Oc3ccc(cc3Cl)C(O)C3NC(=O)C(NC(=O)C5NC(=O)C(CC(N)=O)NC(=O)C(NC(=O)C(CC(C)C)NC)C(O)c5ccc(c(Cl)c5)O4)c4ccc(O)c(c4)-c4c(O)cc(O)cc4C(C(=O)O)NC3=O)OC(CO)C(O)C2O)OC(C)C1O (centres unmarked) [Compound 5, N^van --(n-nonyl)vancomycin] .
Result string: 0.46

Query string: Name the reported log10 ED50 value associated with the compound CNC(CC(C)C)C(=O)NC1C(=O)NC(CC(N)=O)C(=O)NC2C(=O)NC3C(=O)NC(C(=O)NC(C(=O)O)c4cc(O)cc(O)c4-c4cc3ccc4O)C(O)c3ccc(c(Cl)c3)Oc3cc2cc(c3OC2OC(CO)C(O)C(O)C2OC2CC(C)(NCc3ccc(Br)cc3)C(O)C(C)O2)Oc2ccc(cc2Cl)C1O (centres unmarked) [Example 80, N^van --( -p-bromobenzyl)vancomycin]
Result string: 0.13

Query string: Returns the measured log10 ED50 for the input compound. Input: CCCCOc1ccc(CNC2(C)CC(OC3C(Oc4c5cc6cc4Oc4ccc(cc4Cl)C(O)C4NC(=O)C(NC(=O)C6NC(=O)C(CC(N)=O)NC(=O)C(NC(=O)C(CC(C)C)NC)C(O)c6ccc(c(Cl)c6)O5)c5ccc(O)c(c5)-c5c(O)cc(O)cc5C(C(=O)O)NC4=O)OC(CO)C(O)C3O)OC(C)C2O)cc1 (centres unmarked) [Example 84, N^van --( -p-butoxybenzyl)vancomycin]
Result string: -0.19

Query string: Query (compound): CCCCCCCCCCNC1(C)CC(OC2C(Oc3c4cc5cc3Oc3ccc(cc3Cl)C(O)C3NC(=O)C(NC(=O)C5NC(=O)C(CC(N)=O)NC(=O)C(NC(=O)C(CC(C)C)NC)C(O)c5ccc(c(Cl)c5)O4)c4ccc(O)c(c4)-c4c(O)cc(O)cc4C(C(=O)O)NC3=O)OC(CO)C(O)C2O)OC(C)C1O (centres unmarked) [Compound 2, N^van -(n-decyl)vancomycin] ; field requested: log10 ED50
Result string: 0.26

Query string: What measured log10 ED50 goes with CCCCCCCCNC1(C)CC(OC2C(Oc3c4cc5cc3Oc3ccc(cc3Cl)C(O)C3NC(=O)C(NC(=O)C5NC(=O)C(CC(N)=O)NC(=O)C(NC(=O)C(CC(C)C)NC)C(O)c5ccc(c(Cl)c5)O4)c4ccc(O)c(c4)-c4c(O)cc(O)cc4C(C(=O)O)NC3=O)OC(CO)C(O)C2O)OC(C)C1O (centres unmarked) [Compound 7, N^van --(n-octyl)vancomycin] ?
Result string: 0.53

Now for the compound whose log10 ED50 we want.
Query string: What does the record list as log10 ED50 for CCCCCCCCc1ccc(CNC2(C)CC(OC3C(Oc4c5cc6cc4Oc4ccc(cc4Cl)C(O)C4NC(=O)C(NC(=O)C6NC(=O)C(CC(N)=O)NC(=O)C(NC(=O)C(CC(C)C)NC)C(O)c6ccc(c(Cl)c6)O5)c5ccc(O)c(c5)-c5c(O)cc(O)cc5C(C(=O)O)NC4=O)OC(CO)C(O)C3O)OC(C)C2O)cc1 (centres unmarked) [Example 93, N^van --( -p-octylbenzyl)vancomycin] ?
Result string: -0.72

----------
test system: Escherichia coli N10; experiment: MIC, standard agar-dilution assay; assay type: cell-based
Recorded Metric: MIC

Recorded results for 2 molecules are shown here.
Query string: Please give the measured MIC for this molecule: CCCNC1(C)CC(OC2C(Oc3c4cc5cc3Oc3ccc(cc3Cl)C(O)C3NC(=O)C(NC(=O)C5NC(=O)C(CC(N)=O)NC(=O)C(NC(=O)C(CC(C)C)NC)C(O)c5ccc(c(Cl)c5)O4)c4ccc(O)c(c4)-c4c(O)cc(O)cc4C(C(=O)O)NC3=O)OC(CO)C(O)C2O)OC(C)C1O (stereo not drawn)
Result string: > 128 µg/mL

Query string: Please report the recorded MIC for CCCCCCCCN(C)C(CC(C)C)C(=O)NC1C(=O)NC(CC(N)=O)C(=O)NC2C(=O)NC3C(=O)NC(C(=O)NC(C(=O)O)c4cc(O)cc(O)c4-c4cc3ccc4O)C(O)c3ccc(c(Cl)c3)Oc3cc2cc(c3OC2OC(CO)C(O)C(O)C2OC2CC(C)(N)C(O)C(C)O2)Oc2ccc(cc2Cl)C1O (stereo not drawn) .
Result string: > 128 µg/mL

Now for another entry.
Query string: Would you kindly share the measured MIC for CCCCCCCCCNC1(C)CC(OC2C(Oc3c4cc5cc3Oc3ccc(cc3Cl)C(O)C(NC(=O)C(CC(C)C)N(C)CCCCCCCCC)C(=O)NC(CC(N)=O)C(=O)NC5C(=O)NC3C(=O)NC(C(=O)NC(C(=O)O)c5cc(O)cc(O)c5-c5cc3ccc5O)C(O)c3ccc(c(Cl)c3)O4)OC(CO)C(O)C2O)OC(C)C1O (stereo not drawn) ?
Result string: > 128 µg/mL

----------
tested on: Staphylococcus epidermidis EPI1; type: cell-based; conditions: agar dilution
Reported MIC is given for each of the following compounds.
Quick note: give the figure in µg/mL, leave out the unit.

Query string: Which MIC value belongs to CCCCCCCCOc1ccc(CNC2(C)CC(OC3C(Oc4c5cc6cc4Oc4ccc(cc4Cl)C(O)C4NC(=O)C(NC(=O)C6NC(=O)C(CC(N)=O)NC(=O)C(NC(=O)C(CC(C)C)NC)C(O)c6ccc(c(Cl)c6)O5)c5ccc(O)c(c5)-c5c(O)cc(O)cc5C(C(=O)O)NC4=O)OC(CO)C(O)C3O)OC(C)C2O)cc1 (stereo not drawn) [Example 94, N^van --( -p-octyloxybenzyl)vancomycin] ?
Result string: 1

Query string: Requested field: MIC. Item: CCCNC1(C)CC(OC2C(Oc3c4cc5cc3Oc3ccc(cc3Cl)C(O)C(NC(=O)C(CC(C)C)N(C)CCC)C(=O)NC(CC(N)=O)C(=O)NC5C(=O)NC3C(=O)NC(C(=O)NC(C(=O)O)c5cc(O)cc(O)c5-c5cc3ccc5O)C(O)c3ccc(c(Cl)c3)O4)OC(CO)C(O)C2O)OC(C)C1O (stereo not drawn) [Compound 22, N^van, N^leu --di(n-propyl)vancomycin]
Result string: 4

Query string: Recorded MIC for CCCCCCCCCCNC1(C)CC(OC2C(Oc3c4cc5cc3Oc3ccc(cc3Cl)C(O)C(NC(=O)C(CC(C)C)[N+](C)(C)C)C(=O)NC(CC(N)=O)C(=O)NC5C(=O)NC3C(=O)NC(C(=O)NC(C(=O)[O-])c5cc(O)cc(O)c5-c5cc3ccc5O)C(O)c3ccc(c(Cl)c3)O4)OC(CO)C(O)C2O)OC(C)C1O (stereo not drawn) [Compound 124, N^van --(n-decyl)-M43A] , please?
Result string: 1

Query string: Any idea what MIC was measured for CCCCCCCCCCN(C)C(CC(C)C)C(=O)NC1C(=O)NC(CC(N)=O)C(=O)NC2C(=O)NC3C(=O)NC(C(=O)NC(C(=O)O)c4cc(O)cc(O)c4-c4cc3ccc4O)C(O)c3ccc(c(Cl)c3)Oc3cc2cc(c3OC2OC(CO)C(O)C(O)C2OC2CC(C)(N)C(O)C(C)O2)Oc2ccc(cc2Cl)C1O (stereo not drawn) [Compound 3, N^leu --(n-decyl)vancomycin] ?
Result string: 2

Query string: What measured MIC goes with CCCCCNC1(C)CC(OC2C(Oc3c4cc5cc3Oc3ccc(cc3Cl)C(O)C3NC(=O)C(NC(=O)C5NC(=O)C(CC(N)=O)NC(=O)C(NC(=O)C(CC(C)C)NC)C(O)c5ccc(c(Cl)c5)O4)c4ccc(O)c(c4)-c4c(O)cc(O)cc4C(C(=O)O)NC3=O)OC(CO)C(O)C2O)OC(C)C1O (stereo not drawn) [Compound 15, N^van --(n-pentyl)vancomycin] ?
Result string: 2

Query string: What value of MIC has been reported for the following compound? CCCCCCNC1(C)CC(OC2C(Oc3c4cc5cc3Oc3ccc(cc3Cl)C(O)C3NC(=O)C(NC(=O)C5NC(=O)C(CC(N)=O)NC(=O)C(NC(=O)C(CC(C)C)NC)C(O)c5ccc(c(Cl)c5)O4)c4ccc(O)c(c4)-c4c(O)cc(O)cc4C(C(=O)O)NC3=O)OC(CO)C(O)C2O)OC(C)C1O (stereo not drawn) [Compound 13, N^van --(n-hexyl)vancomycin]
Result string: 2

Query string: What value of MIC has been reported for the following compound? CCCCCCCCNC1(C)CC(OC2C(Oc3c4cc5cc3Oc3ccc(cc3Cl)C(O)C3NC(=O)C(NC(=O)C5NC(=O)C(CC(N)=O)NC(=O)C(NC(=O)C(CC(C)C)NC)C(O)c5ccc(c(Cl)c5)O4)c4ccc(O)c(c4)-c4c(O)cc(O)cc4C(C(=O)O)NC3=O)OC(CO)C(O)C2O)OC(C)C1O (stereo not drawn) [Compound 7, N^van --(n-octyl)vancomycin]
Result string: 1

Query string: Please look up its MIC: CCCCNC1(C)CC(OC2C(Oc3c4cc5cc3Oc3ccc(cc3Cl)C(O)C3NC(=O)C(NC(=O)C5NC(=O)C(CC(N)=O)NC(=O)C(NC(=O)C(CC(C)C)NC)C(O)c5ccc(c(Cl)c5)O4)c4ccc(O)c(c4)-c4c(O)cc(O)cc4C(C(=O)O)NC3=O)OC(CO)C(O)C2O)OC(C)C1O (stereo not drawn) [Compound 17, N^van --(n-butyl)vancomycin]
Result string: 4

Query string: Would you kindly share the measured MIC for CCCNC1(C)CC(OC2C(Oc3c4cc5cc3Oc3ccc(cc3Cl)C(O)C3NC(=O)C(NC(=O)C5NC(=O)C(CC(N)=O)NC(=O)C(NC(=O)C(CC(C)C)NC)C(O)c5ccc(c(Cl)c5)O4)c4ccc(O)c(c4)-c4c(O)cc(O)cc4C(C(=O)O)NC3=O)OC(CO)C(O)C2O)OC(C)C1O (stereo not drawn) [Compound 20, N^van --(n-propyl)vancomycin] ?
Result string: 4

Query string: Data request, read-out MIC, for CCNC1(C)CC(OC2C(Oc3c4cc5cc3Oc3ccc(cc3Cl)C(O)C(NC(=O)C(CC(C)C)N(C)CC)C(=O)NC(CC(N)=O)C(=O)NC5C(=O)NC3C(=O)NC(C(=O)NC(C(=O)O)c5cc(O)cc(O)c5-c5cc3ccc5O)C(O)c3ccc(c(Cl)c3)O4)OC(CO)C(O)C2O)OC(C)C1O (stereo not drawn) [Compound 24, N^van, N^leu --diethylvancomycin]
Result string: 2

***
Query string: // MIC lookup, key: CCCCCCCCNC1(C)CC(OC2C(Oc3c4cc5cc3Oc3ccc(cc3Cl)C(O)C(NC(=O)C(CC(C)C)N(C)CCCCCCCC)C(=O)NC(CC(N)=O)C(=O)NC5C(=O)NC3C(=O)NC(C(=O)NC(C(=O)O)c5cc(O)cc(O)c5-c5cc3ccc5O)C(O)c3ccc(c(Cl)c3)O4)OC(CO)C(O)C2O)OC(C)C1O (stereo not drawn) [Compound 9, N^van, N^leu --di(n-octyl)vancomycin]
Result string: 4

Query string: # MIC lookup, item CCCCc1ccc(CNC2(C)CC(OC3C(Oc4c5cc6cc4Oc4ccc(cc4Cl)C(O)C4NC(=O)C(NC(=O)C6NC(=O)C(CC(N)=O)NC(=O)C(NC(=O)C(CC(C)C)NC)C(O)c6ccc(c(Cl)c6)O5)c5ccc(O)c(c5)-c5c(O)cc(O)cc5C(C(=O)O)NC4=O)OC(CO)C(O)C3O)OC(C)C2O)cc1 (stereo not drawn) [Example 81, N^van --( -p-butylbenzyl)vancomycin]
Result string: 0.25
